# testProtocol: Volatility of perfuming compounds (Tables 4 to 10), with top/middle/bottom note type
# Assay type: physicochemical
# recordedConditions: Table 7, citrus note
Use Volatility (μg/l air) to assign classes; range list: 0 = under 60 μg/l air, 1 = from 60 μg/l air up to 700 μg/l air, 2 = 700 μg/l air and over

CC(=O)OC(C)c1ccccc1 (racemic) [(+−)-1-PHENYLETHYL ACETATE]
1

Shifting focus to the molecule that follows.
*Q* Please let me know in which category the item CC(C)(O)CCC1CCCCC1 belongs.
*A* 1

###

# testProtocol: Volatility of perfuming compounds (Tables 4 to 10), with top/middle/bottom note type
# Format: physicochemical
# recordedConditions: perfuming compounds having a green note
reportedProperty: Volatility (μg/l air)
Give bare numbers, in μg/l air.

CC(=O)/C=C/C1C(C)=CCCC1(C)C (racemic)
68.11

Field: Volatility (μg/l air). Fill in for each record below.
1. C=CCOC(=O)CCC1CCCCC1 [ALLYL 3-CYCLOHEXYLPROPANOATE]
2. CCCCCCOC(=O)c1ccccc1O [HEXYL 2-HYDROXYBENZOATE]
3. CC/C=C\CCOC(=O)CCC [(3Z)-3-hexen-1-yl butyrate]
4. CCCCCC(=O)OCC [ETHYL HEXANOATE]
5. CC1CC(C)(C)OC(Cc2ccccc2)O1 (centres unmarked)

*A*
[75.80, 3.82, 1674.15, 9675.10, 29.99]

Field: Volatility (μg/l air). Fill in for each record below.
1. CCCCCCOC(C)=O [HEXYL ACETATE]
2. CC/C=C\CCCCCO [(Z)-6-NONEN-1-OL]
3. COCCc1ccccc1 [(2-METHOXYETHYL)BENZENE]
4. c1ccc(CCCc2ccccn2)cc1 [2-(3-PHENYLPROPYL)PYRIDINE]

*A*
1: 2316.04; 2: 6.91; 3: 1239.07; 4: 3.83

Field: Volatility (μg/l air). Fill in for each record below.
1. C[C@@H]1CC[C@@H](C(C)(C)S)C(=O)C1 [(1R,4R)-8-MERCAPTO-3-P-MENTHANONE]
2. CCCCCCCCCCO [1-DECANOL]
3. CC1=CC2CC(C=O)C1CC2C(C)C (centres unmarked)

*A*
1. 155.12
2. 31.90
3. 131.02

Field: Volatility (μg/l air). Fill in for each record below.
1. CCC/C=C/CO [(E)-2-HEXEN-1-OL]
2. CC(CC=O)c1ccccc1 (racemic) [(+−)-3-PHENYLBUTANAL]
3. CCCCCCCCC=O [nonanal]
4. CCCC(=NO)C(C)C [2-METHYL-3-HEXANONE OXIME]
5. CC(=O)OC(CC(C)C)CC(C)C [1-ISOBUTYL-3-METHYLBUTYL ACETATE]

*A*
[3752.17, 227.83, 2777.63, 687.75, 5265.61]

Field: Volatility (μg/l air). Fill in for each record below.
1. CCCC(C)COC(=O)C(C)CCC (centres unmarked) [2-METHYLPENTYL 2-METHYLPENTANOATE]
2. CC1(C)CC=C(CCC=O)CC1

*A*
450.33
417.92

Field: Volatility (μg/l air). Fill in for each record below.
1. CC/C=C\CCOC(=O)OC [(3Z)-hex-3-en-1-yl methyl carbonate]
2. CCCc1ccc2c(c1)OCC(=O)CO2 [7-PROPYL-2H,4H-1,5-BENZODIOXEPIN-3-ONE]
3. CCOC(=O)C(C)CC (racemic) [(+−)-ethyl 2-methylbutanoate]

*A*
1: 1506.33; 2: 4.85; 3: 83769.16

###

# testProtocol: Volatility of perfuming compounds (Tables 4 to 10), with top/middle/bottom note type
# Type: physicochemical
# recordedConditions: Table 7, citrus note; top, middle or bottom note
reportedProperty: Type

(Z)-3,7-DIMETHYL-1,6-NONADIEN-3-OL (A) + (E)-3,7-DIMETHYL-1,6-NONADIEN-3-OL (B)
Top
ALLYL (3-METHYLBUTOXY)ACETATE (A) + (+−)-ALLYL (2-METHYLBUTOXY)ACETATE (B)
Top

###

# testProtocol: Volatility of perfuming compounds (Tables 4 to 10), with top/middle/bottom note type
# Type: physicochemical
# recordedConditions: note type (Top/Middle/Bottom) by volatility; perfuming compounds having a green note
reportedProperty: Type

// solved cases for Type follow
CC(C)C(=O)OCCOc1ccccc1 [2-phenoxyethyl 2-methylpropanoate]
Bottom
CC/C=C\CCOC(=O)C(C)C [(Z)-3-HEXENYL ISOBUTYRATE]
Top
C=CC(C)=CCC=C(C)C
Top
C=C/C=C/C=C\CCCCC
Top
C=C(C)CC(C(C)=O)C(=O)OCC (racemic)
Top

Field: Type. Fill in for each record below.
1. CC1=C[C@H]2C[C@H](C(C)C)[C@@H]1[C@@H](C1OCCO1)C2 (racemic)
2. CCCC(=O)OCC [ETHYL BUTANOATE]
3. CC/C=C\CCO [(Z)-3-HEXEN-1-OL]
4. C/C=C/C(=O)C1C(C)=CCCC1(C)C (racemic)
5. C=C(C)[C@@H]1CC=C(CO)CC1
6. CC1=CCC2C(C1)C1CC2C2(C1)OC2C (racemic)

*A*
["Bottom", "Top", "Top", "Top", "Bottom", "Bottom"]

###

# testProtocol: Volatility of perfuming compounds (Tables 4 to 10), with top/middle/bottom note type
# Assay type: physicochemical
# recordedConditions: Table 6, perfuming compounds having a fruity note
# Procedure: In some aspects, the first perfume accord comprises perfuming compounds having a volatility ranging from 70,000 to 100 μg/l in air. In some aspects, perfuming compounds having a volatility ranging from 70,000 to 100 μg/l in air are referred to as “top notes”. In some aspects, the second perfume accord comprises perfuming compounds having a volatility ranging from 99 to 50 μg/l in air. […]
reportedProperty: Volatility (μg/l air)
Give bare numbers, in μg/l air.

O=C(Cc1ccccc1)OCCc1ccccc1 [2-PHENYLETHYL PHENYLACETATE]
0.20
CCCC(C)COC(=O)C(C)CCC (stereo not shown) [2-METHYLPENTYL 2-METHYLPENTANOATE]
450.33
CCCCCCC1CCCC(=O)O1 (stereo not shown) [6-hexyltetrahydro-2H-pyran-2-one]
4.64
CC1CC(C)(c2ccccc2)CO1 (racemic)
263.73
C/C=C(\C)C(=O)OCc1ccccc1 [BENZYL (E)-2-METHYL-2-BUTENOATE]
33.88

Field: Volatility. Fill in for each record below.
1. CCOC(=O)c1ccccc1 [ETHYL BENZOATE]
2. CC(=O)OCCc1ccccc1 [2-PHENYLETHYL ACETATE]
3. CCC=CCC=C/C=C/C(=O)OCC [ETHYL (2E)-2,4,7-DECATRIENOATE]
4. CCCC(C)C(=O)OCC (racemic) [(+−)-ETHYL 2-METHYLPENTANOATE]
5. CC(=O)OC(C)c1ccccc1 (racemic) [(+−)-1-PHENYLETHYL ACETATE]

*A*
1. 1285.12
2. 201.26
3. 25.34
4. 35090.18
5. 387.96

###

# testProtocol: Volatility of perfuming compounds (Tables 4 to 10), with top/middle/bottom note type
# Assay type: physicochemical
# recordedConditions: Table 7, citrus note
# Protocol: In some aspects, the first perfume accord comprises perfuming compounds having a volatility ranging from 70,000 to 100 μg/l in air. In some aspects, perfuming compounds having a volatility ranging from 70,000 to 100 μg/l in air are referred to as “top notes”. In some aspects, the second perfume accord comprises perfuming compounds having a volatility ranging from 99 to 50 μg/l in air. […]
Kindly state Volatility (μg/l air) for each of the entries shown.
One number for each entry, in μg/l air.

TRICYCLO[5.2.1.0(2,6)]DEC-3-EN-8-YL PROPANOATE (A) + TRICYCLO[5.2.1.0(2,6)]DEC-4-EN-8-YL PROPANOATE (B)
35.82
9-ETHYLIDENE-3-OXATRICYCLO[6.2.1.0(2,7)]UNDECAN-4-ONE (A) + 10-ETHYLIDENE-3-OXATRICYCLO[6.2.1.0(2,7)] . . . (B)
2.10

Proceed to the following item.
*Q* Fill in reported Volatility (μg/l air) for this entry: CITRONELLOL (A) + GERANIOL (B)
*A* 89.88

###

# testProtocol: Volatility of perfuming compounds (Tables 4 to 10), with top/middle/bottom note type
# Format: physicochemical
# recordedConditions: perfuming compounds having a green note
# Experimental: In some aspects, the first perfume accord comprises perfuming compounds having a volatility ranging from 70,000 to 100 μg/l in air. In some aspects, perfuming compounds having a volatility ranging from 70,000 to 100 μg/l in air are referred to as “top notes”. In some aspects, the second perfume accord comprises perfuming compounds having a volatility ranging from 99 to 50 μg/l in air. […]
Where a name gives a salt, the structure may show the parent alone.
Kindly state Volatility (μg/l air) for each of the entries shown.
Numbers only, in μg/l air.

CCC(=O)OCc1ccccc1 [BENZYL PROPANOATE]
113.60
CC1CCCC2(C)CCCCC12O (racemic)
330.48
O=COCCc1ccccc1 [2-PHENYLETHYL FORMATE]
567.67
CC/C=C\CCO [(Z)-3-HEXEN-1-OL]
5986.62
CC1CC(C)(c2ccccc2)CO1 (racemic)
263.73

Field: Volatility (μg/l air). Fill in for each record below.
1. CC/C=C\CCOC(=O)C/C=C\CC [(3Z)-3-hexen-1-yl (3Z)-3-hexenoate]
2. COc1ccc(CC(C)C=O)cc1 (racemic)
3. CC(=O)CCc1ccccc1
4. COC(=O)OC1CC/C=C\CCC1 (racemic)

*A*
[210.68, 18.99, 176.55, 278.83]

Field: Volatility (μg/l air). Fill in for each record below.
1. COC(Cc1ccccc1)OC
2. CC1=CCC2C(C1)C1CC2C2(C1)OC2C (racemic)
3. COC(OC)C(C)c1ccccc1 (stereo not drawn)
4. C=C(C)[C@@H]1CC=C(CO)CC1
5. CC(C)=CC1CC(C)CCO1 (stereo not drawn)

*A*
[456.97, 36.76, 376.94, 33.78, 2483.93]

Field: Volatility (μg/l air). Fill in for each record below.
1. CCCCCCCC(=O)OCC [ethyl octanoate]
2. CCCCO
3. CC/C=C\CC/C=C/C=O
4. CCCCCCOC(=O)C(C)C [hexyl 2-methylpropanoate]

*A*
1. 800.05
2. 17700.00
3. 632.43
4. 1661.18
